Hello, the source for this data is patent US20240217967A1, in case you need it.

Biological target: DDR2 (Homo sapiens)
Sequence (Q16832 22-855): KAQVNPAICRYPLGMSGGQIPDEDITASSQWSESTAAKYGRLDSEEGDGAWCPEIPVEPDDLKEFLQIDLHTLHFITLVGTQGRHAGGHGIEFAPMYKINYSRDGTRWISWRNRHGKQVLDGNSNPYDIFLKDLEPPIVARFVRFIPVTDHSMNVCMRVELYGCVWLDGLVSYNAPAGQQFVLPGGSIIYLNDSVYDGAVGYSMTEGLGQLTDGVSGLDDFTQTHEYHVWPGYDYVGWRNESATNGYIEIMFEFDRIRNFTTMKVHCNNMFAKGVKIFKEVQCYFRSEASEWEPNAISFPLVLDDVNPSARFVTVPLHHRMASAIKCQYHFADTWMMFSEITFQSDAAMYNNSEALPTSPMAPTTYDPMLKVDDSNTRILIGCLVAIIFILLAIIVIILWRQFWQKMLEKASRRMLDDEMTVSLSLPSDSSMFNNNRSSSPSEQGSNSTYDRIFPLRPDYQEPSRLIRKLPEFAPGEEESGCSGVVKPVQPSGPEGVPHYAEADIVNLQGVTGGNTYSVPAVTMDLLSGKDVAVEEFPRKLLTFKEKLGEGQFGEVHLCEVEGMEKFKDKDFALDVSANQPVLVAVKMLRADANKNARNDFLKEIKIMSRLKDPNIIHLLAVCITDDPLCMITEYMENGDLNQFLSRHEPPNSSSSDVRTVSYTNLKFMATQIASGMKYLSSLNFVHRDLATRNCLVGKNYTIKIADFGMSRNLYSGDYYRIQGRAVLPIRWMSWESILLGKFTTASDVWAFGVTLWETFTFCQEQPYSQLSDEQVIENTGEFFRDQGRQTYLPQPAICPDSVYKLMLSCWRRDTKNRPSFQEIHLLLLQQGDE
Assay: DDR2 cell based assay (phospho-ELISA in HEK293T-DDR2 recombinant cells, collagen II stimulation)
Details: bovine Type II Collagen stimulation
measured.endpoint: IC50

INSERT INTO results (molecule, reported_measurement) VALUES
  ('Cc1cn(-c2cc(C(=O)Nc3ccc4c(c3)N(C(=O)c3cnc5[nH]ncc5c3)CC4)cc(C(F)(F)F)c2)cn1', '< 0.025 µM'),
  ('Cc1cn(-c2cc(NC(=O)c3ccc4c(c3)N(Cc3cnc5[nH]ccc5c3)CC4)cc(C(F)(F)F)c2)cn1', '< 0.025 µM'),
  ('Cc1cn(-c2cc(NC(=O)c3ccc4c(c3)N(C(=O)c3cnc5[nH]ncc5c3)CC4C)cc(C(F)(F)F)c2)cn1 (stereo not shown)', '0.025 to 0.05 µM');

Indicate the recorded IC50 value for this molecule: Cc1n[nH]c2ncc(CN3CCc4ccc(C(=O)Nc5cc(C(C)(C)C)no5)cc43)cc12
< 0.025 µM

Indicate the recorded IC50 value for this molecule: O=C(Nc1cccc(OC(F)(F)F)c1)c1ccc2c(c1)N(Cc1cnc3[nH]ncc3c1)CC2
< 0.025 µM

Indicate the recorded IC50 value for this molecule: CC1CN(Cc2cnc3[nH]ncc3c2)c2cc(C(=O)Nc3cccc(C(F)(F)F)c3)ccc21 (single isomer, unassigned)
0.025 to 0.05 µM

Indicate the recorded IC50 value for this molecule: CN1CCN(Cc2ccc(NC(=O)c3ccc4c(c3)N(Cc3cnc5[nH]nc(N6CCOCC6)c5c3)CC4)cc2C(F)(F)F)CC1
0.05 to 0.08 µM

----------
Target: DDR2 (Homo sapiens)
Sequence (Q16832 22-855): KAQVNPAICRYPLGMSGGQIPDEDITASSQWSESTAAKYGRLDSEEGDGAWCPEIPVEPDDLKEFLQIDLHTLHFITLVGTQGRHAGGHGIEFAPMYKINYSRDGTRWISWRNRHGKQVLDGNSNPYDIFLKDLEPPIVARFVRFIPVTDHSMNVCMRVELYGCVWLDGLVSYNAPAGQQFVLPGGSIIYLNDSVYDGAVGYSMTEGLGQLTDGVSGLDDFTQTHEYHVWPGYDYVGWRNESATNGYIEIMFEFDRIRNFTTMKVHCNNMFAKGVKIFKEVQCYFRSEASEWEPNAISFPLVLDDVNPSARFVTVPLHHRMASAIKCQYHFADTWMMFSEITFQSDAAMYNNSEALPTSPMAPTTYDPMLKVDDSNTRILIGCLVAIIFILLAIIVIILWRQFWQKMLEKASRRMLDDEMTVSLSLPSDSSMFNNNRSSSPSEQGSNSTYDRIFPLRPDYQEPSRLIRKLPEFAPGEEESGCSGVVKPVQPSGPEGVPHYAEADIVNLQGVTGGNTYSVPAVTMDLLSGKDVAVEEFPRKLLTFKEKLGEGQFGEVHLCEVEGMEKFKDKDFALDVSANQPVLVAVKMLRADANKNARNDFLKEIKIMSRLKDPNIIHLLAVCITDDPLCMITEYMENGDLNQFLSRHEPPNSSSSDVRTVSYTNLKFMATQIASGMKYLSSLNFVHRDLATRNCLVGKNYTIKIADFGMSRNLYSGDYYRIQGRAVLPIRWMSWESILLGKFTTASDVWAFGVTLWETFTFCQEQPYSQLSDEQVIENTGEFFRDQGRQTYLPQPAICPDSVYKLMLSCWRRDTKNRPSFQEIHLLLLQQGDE
Assay: DDR2 cell based assay (phospho-ELISA in HEK293T-DDR2 recombinant cells, collagen II stimulation)
Details: bovine Type II Collagen stimulation
measured.endpoint: IC50

Solved entries (count: 3):
INSERT INTO assay_data (compound, reported_measurement) VALUES
  ('O=C(Nc1cc(F)cc(C(F)(F)F)c1)c1ccc2c(c1)N(Cc1cnc3ccccn13)CC2', '0.05 to 0.08 µM'),
  ('CN1CCN(Cc2cc(NC(=O)c3ccc4c(c3)N(Cc3cnc5[nH]ccc5c3)CC4)cc(C(F)(F)F)c2)CC1', '< 0.025 µM'),
  ('Cc1n[nH]c2ncc(CN3CCc4ccc(C(=O)Nc5ccc(CN6CCN(C)CC6)c(C(F)(F)F)c5)cc43)cc12', '0.05 to 0.08 µM');

Indicate the recorded IC50 value for this compound: O=C(Nc1cccc(C(F)(F)F)c1)c1ccc2c(c1)N(Cc1cnc3[nH]ncc3c1)CC2
< 0.025 µM

Indicate the recorded IC50 value for this compound: Cc1cn(-c2cc(NC(=O)c3ccc4c(c3)N(Cc3cnc5ccccn35)CC4)cc(C(F)(F)F)c2)cn1
0.05 to 0.08 µM

Indicate the recorded IC50 value for this compound: Cc1cn(-c2cc(NC(=O)c3ccc4c(c3)N(Cc3cnc5[nH]ncc5c3)CC4)cc(C(F)(F)F)c2)cn1
0.05 to 0.08 µM

Indicate the recorded IC50 value for this compound: Cc1cn(-c2cc(NC(=O)c3ccc4c(c3)N(Cc3cnc5cnccn35)CC4C)cc(C(F)(F)F)c2)cn1 (single isomer, unassigned)
< 0.025 µM

Indicate the recorded IC50 value for this compound: CC1CN(Cc2cnc3cnccn23)c2cc(C(=O)Nc3cccc(C(F)(F)F)c3)ccc21 (stereo not drawn)
0.05 to 0.08 µM

Indicate the recorded IC50 value for this compound: CN1CCN(Cc2ccc(NC(=O)c3ccc4c(c3)N(Cc3cnc5[nH]ncc5c3)CC4)cc2C(F)(F)F)CC1
< 0.025 µM

----------
The compounds below have reported IC50 for DDR1 (Homo sapiens, UniProt Q08345).

Report the value of IC50 obtained on DDR1 (Homo sapiens, UniProt Q08345) for COc1ccc(NC(=O)c2ccc3c(c2)N(Cc2cnc4cnccn24)CC3)cc1C(F)(F)F .
Sequence (Q08345 19-913): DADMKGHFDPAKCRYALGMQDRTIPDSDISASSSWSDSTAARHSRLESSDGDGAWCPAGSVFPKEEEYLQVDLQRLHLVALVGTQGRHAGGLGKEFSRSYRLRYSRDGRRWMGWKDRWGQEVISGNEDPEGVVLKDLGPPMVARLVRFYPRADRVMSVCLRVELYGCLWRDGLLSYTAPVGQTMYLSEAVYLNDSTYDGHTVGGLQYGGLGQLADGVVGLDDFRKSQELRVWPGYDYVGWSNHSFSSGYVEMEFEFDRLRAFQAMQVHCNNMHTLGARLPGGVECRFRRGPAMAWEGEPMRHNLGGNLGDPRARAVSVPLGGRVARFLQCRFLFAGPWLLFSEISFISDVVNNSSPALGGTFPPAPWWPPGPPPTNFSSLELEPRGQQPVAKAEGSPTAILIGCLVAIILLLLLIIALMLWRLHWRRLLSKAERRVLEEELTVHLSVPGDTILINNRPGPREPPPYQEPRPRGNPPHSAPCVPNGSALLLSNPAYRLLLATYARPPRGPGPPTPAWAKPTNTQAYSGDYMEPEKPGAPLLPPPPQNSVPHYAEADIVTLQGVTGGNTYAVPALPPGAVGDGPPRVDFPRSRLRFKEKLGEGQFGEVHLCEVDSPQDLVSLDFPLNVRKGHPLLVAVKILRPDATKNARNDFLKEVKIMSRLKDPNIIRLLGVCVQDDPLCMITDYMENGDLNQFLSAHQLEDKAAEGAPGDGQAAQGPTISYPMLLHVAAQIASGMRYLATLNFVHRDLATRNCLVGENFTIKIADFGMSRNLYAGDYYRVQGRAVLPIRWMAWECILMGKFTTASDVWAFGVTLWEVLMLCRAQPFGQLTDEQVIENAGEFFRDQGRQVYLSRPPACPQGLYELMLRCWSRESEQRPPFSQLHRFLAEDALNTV
50 to 80 nM

Report the value of IC50 obtained on DDR1 (Homo sapiens, UniProt Q08345) for Cc1n[nH]c2ncc(CN3CCc4ccc(C(=O)Nc5cncc(C(F)(F)F)c5)cc43)cc12 .
< 25 nM

Report the value of IC50 obtained on DDR1 (Homo sapiens, UniProt Q08345) for Cc1n[nH]c2ncc(CN3CCc4ccc(C(=O)Nc5ccc(CN6CCN(C)CC6)c(C(F)(F)F)c5)cc43)cc12 .
< 25 nM

Report the value of IC50 obtained on DDR1 (Homo sapiens, UniProt Q08345) for Cc1cn(-c2cc(NC(=O)c3ccc4c(c3)N(Cc3cnc5[nH]ncc5c3)CC4C)cc(C(F)(F)F)c2)cn1 (stereo not shown) .
< 25 nM

Report the value of IC50 obtained on DDR1 (Homo sapiens, UniProt Q08345) for CN1CCN(Cc2ccc(NC(=O)c3ccc4c(c3)N(Cc3cnc5[nH]ncc5c3)CC4)cc2C(F)(F)F)CC1 .
< 25 nM

Report the value of IC50 obtained on DDR1 (Homo sapiens, UniProt Q08345) for O=C(Nc1cc(F)cc(C(F)(F)F)c1)c1ccc2c(c1)N(Cc1cnc3ccccn13)CC2 .
< 25 nM

Report the value of IC50 obtained on DDR1 (Homo sapiens, UniProt Q08345) for Cc1cn(-c2cc(C(=O)Nc3ccc4c(c3)N(Cc3cnc5ccccn35)CC4)cc(C(F)(F)F)c2)cn1 .
50 to 80 nM

----------
The compounds below have reported IC50 for DDR1 (Homo sapiens, UniProt Q08345).

Solved entries (count: 8):
INSERT INTO results (compound, reported_measurement) VALUES
  ('CC(C)(C)c1cc(NC(=O)c2ccc3c(c2)N(Cc2cnc4[nH]ncc4c2)CC3)n(-c2ccccc2)n1', '25 to 50 nM'),
  ('CC(C)(C)c1cc(NC(=O)c2ccc3c(c2)N(Cc2cnc4[nH]ncc4c2)CC3)on1', '< 25 nM'),
  ('O=C(Nc1cc(OCCN2CCOCC2)cc(C(F)(F)F)c1)c1ccc2c(c1)N(Cc1cnc3cnccn13)CC2', '50 to 80 nM'),
  ('Cc1cn(-c2cc(NC(=O)c3ccc4c(c3)N(Cc3cnc5cnccn35)CC4)cc(C(F)(F)F)c2)cn1', '< 25 nM'),
  ('Cc1cn(-c2cc(C(=O)Nc3ccc4c(c3)N(C(=O)c3cnc5cnccn35)CC4)cc(C(F)(F)F)c2)cn1', '25 to 50 nM'),
  ('Cc1cn(-c2cc(NC(=O)c3ccc4c(c3)N(Cc3cnc5cnccn35)CC4C)cc(C(F)(F)F)c2)cn1 (single isomer, unassigned)', '< 25 nM'),
  ('Cc1cn(-c2cc(NC(=O)c3ccc4c(c3)N(Cc3ccc5[nH]ncc5c3)CC4)cc(C(F)(F)F)c2)cn1', '50 to 80 nM'),
  ('CN1CCN(Cc2ccc(NC(=O)c3ccc4c(c3)N(Cc3cnc5c(c3)CCN5)CC4)cc2C(F)(F)F)CC1', '< 25 nM');

Report the value of IC50 obtained on DDR1 (Homo sapiens, UniProt Q08345) for CC(C)(c1cc(NC(=O)c2ccc3c(c2)N(Cc2cnc4[nH]ncc4c2)CC3)no1)C(F)(F)F .
< 25 nM

Report the value of IC50 obtained on DDR1 (Homo sapiens, UniProt Q08345) for CN1CCN(Cc2ccc(NC(=O)c3ccc4c(c3)N(Cc3cnn5ccncc35)CC4)cc2C(F)(F)F)CC1 .
25 to 50 nM
